- testedSystem: GABAB receptors
- settings: inhibition of [125I]CGP 64213 binding, native receptors; read-out: Rat cerebral cortex IC50

| molecularString | testedSystem | displayUnit | IC50 |
| --- | --- | --- | --- |
| NCCCP(=O)(O)C(F)F | GABAB receptors | nM | 280 |

---

- testedSystem: recombinant GABABR1a receptors
- settings: read-out: COS 1 cells IC50, inhibition of [125I]CGP 64213 binding

| molecularString | IC50 / µM |
| --- | --- |
| NCCCP(=O)(O)C(F)F | 12.3 |
